recordedMetric: melting point

Examples with their reported melting point follow.
[[record]]
compound = "COc1cc(OC)c(C2=CCN(C)CC2)c(O)c1C(=O)/C=C/c1cccc(Cl)c1 [Compound A7]"
recordedmetric = "melting point"
measured = "182 to 184 °C"

[[record]]
compound = "COc1cc(OC)c(C(=O)/C=C/c2cccc(Cl)c2)c(O)c1CN1CCCCC1 [Compound C4]"
recordedmetric = "melting point"
measured = "134 to 135 °C"

[[record]]
compound = "COc1cc(OC)c(C2=CCNCC2)c(O)c1C(=O)/C=C/c1cccc(C)c1 [Compound B5]"
recordedmetric = "melting point"
measured = "95 to 96 °C"

[[record]]
compound = "COc1cc(OC)c(C2=CCN(C)CC2)c(O)c1C(=O)/C=C/c1ccccc1[N+](=O)[O-] [Compound A3]"
recordedmetric = "melting point"
measured = "149 to 151 °C"

[[record]]
compound = "COc1cccc(/C=C/C(=O)c2c(OC)cc(OC)c(C3=CCNCC3)c2O)c1OC [Compound B4]"
recordedmetric = "melting point"
measured = "109 to 110 °C"

[[record]]
compound = "COc1ccc(/C=C/C(=O)c2c(OC)cc(OC)c(C3=CCNCC3)c2O)c(OC)c1OC [Compound B16]"
recordedmetric = "melting point"
measured = "98 to 100 °C"

[[record]]
compound = "COc1cc(OC)c2c(=O)cc(-c3ccc(C)cc3)oc2c1C1=CCN(C)CC1 [Compound F3]"
recordedmetric = "melting point"
measured = "113 to 114 °C"

[[record]]
compound = "COc1cc(OC)c(C2=CCN(C)CC2)c(O)c1C(=O)/C=C/c1ccc(C#N)cc1 [Compound A15]"
recordedmetric = "melting point"
measured = "125 to 126 °C"

[[record]]
compound = "COc1cc(OC)c(C(=O)/C=C/c2cccc(C)c2)c(O)c1CN1CCOCC1 [Compound D7]"
recordedmetric = "melting point"
measured = "158 to 159 °C"

[[record]]
compound = "COc1cc(OC)c(C2=CCN(C)CC2)c(O)c1C(=O)/C=C/c1ccco1 [Compound E1]"
recordedmetric = "melting point"
measured = "145 to 146 °C"


Could you tell me melting point for each of these compounds? They are listed below.
1. COc1cc(OC)c(C2=CCNCC2)c(O)c1C(=O)/C=C/c1ccc(C)cc1 [Compound B9]
2. COc1cc(OC)c(C2=CCN(C)CC2)c(O)c1C(=O)/C=C/c1ccc(Br)cc1 [Compound A13]
3. COc1cc(OC)c(C(=O)/C=C/c2ccc(C)cc2)c(O)c1CN1CCOCC1 [Compound D1]
4. COc1cccc(/C=C/C(=O)c2c(OC)cc(OC)c(C3=CCNCC3)c2O)c1 [Compound B6]
5. COc1ccc(/C=C/C(=O)c2c(OC)cc(OC)c(C3=CCNCC3)c2O)cc1 [Compound B10]
6. COc1cc(OC)c(C2=CCNCC2)c(O)c1C(=O)/C=C/c1ccc(C#N)cc1 [Compound B15]

98 to 100 °C
164 to 165 °C
126 to 127 °C
99 to 100 °C
90 to 91 °C
135 to 136 °C

get_value(item= COc1cc(OC)c(C2=CCN(C)CC2)c(O)c1C(=O)/C=C/c1cccc([N+](=O)[O-])c1 [Compound A8] , readout=melting point) returns 128 to 130 °C
